test system: model of focal ischemic stroke (middle cerebral artery occlusion, MCAO); assay: Cerebral infarction inhibition in animal model of focal ischemic stroke (MCAO 1 hour, TTC staining, infarct volume); format: in vivo, rat; conditions: 10 mg/kg intravenously, 6 hours after reperfusion
Overview of reported infarct volume reduced to, as compared to the control group across a group of compounds:
Attribute Measured: infarct volume reduced to, as compared to the control group (%)

[[record]]
compound = "CC(=O)C(=O)Oc1ccc(NCc2c(F)c(F)c(C(F)(F)F)c(F)c2F)cc1C(=O)O"
system = "model of focal ischemic stroke (middle cerebral artery occlusion, MCAO)"
readout_unit = "%"
recorded_result = 33.3

[[record]]
compound = "CC(=O)C(=O)N(C)CCC(Oc1ccc(C(F)(F)F)cc1)c1ccccc1 (stereo not shown)"
system = "model of focal ischemic stroke (middle cerebral artery occlusion, MCAO)"
readout_unit = "%"
recorded_result = 16.0

[[record]]
compound = "CC(=O)C(=O)Oc1ccccc1C(=O)O"
system = "model of focal ischemic stroke (middle cerebral artery occlusion, MCAO)"
readout_unit = "%"
recorded_result = 26.6

[[record]]
compound = "CC(=O)C(=O)NCCC(Oc1ccc(C(F)(F)F)cc1)c1ccccc1 (stereo not shown)"
system = "model of focal ischemic stroke (middle cerebral artery occlusion, MCAO)"
readout_unit = "%"
recorded_result = 58.7

